- Test system: chondroitin 6-sulfotransferase
- measurement-description: Transfer reaction of sulfate group (35SO4) to lactosamine oligosaccharides by purified sulfotransferase
- Type: biochemical, chick
- measurement-parameters: acceptor for chondroitin 6-sulfotransferase; Superdex 30 gel filtration, 35S radioactivity
endpoint-name: Incorporation (transfer) of sulfate group into the oligosaccharide, in words

// Incorporation (transfer) of sulfate group into the oligosaccharide, in words lookup, key: CC(=O)N[C@H]1[C@H](O[C@H]2[C@@H](O)[C@@H](COS(=O)(=O)O)O[C@@H](O[C@H]3[C@H](O)[C@@H](NC(C)=O)C(O)O[C@@H]3COS(=O)(=O)O)[C@@H]2O)O[C@H](COS(=O)(=O)O)[C@@H](O[C@@H]2O[C@H](CO)[C@H](O)[C@H](O)[C@H]2O)[C@@H]1O (stereo partly drawn) observed

// Incorporation (transfer) of sulfate group into the oligosaccharide, in words lookup, key: CC(=O)N[C@H]1C(O)O[C@H](CO)[C@@H](O[C@@H]2O[C@H](CO)[C@H](O)[C@H](O)[C@H]2O)[C@@H]1O (stereo partly drawn) observed

// Incorporation (transfer) of sulfate group into the oligosaccharide, in words lookup, key: CC(=O)NC1C(O)OC(CO)C(OC2OC(CO)C(O)C(OC3OC(CO)C(OC4OC(CO)C(O)C(OC5(C(=O)O)CC(O)C(NC(C)=O)C(C(O)C(O)CO)O5)C4O)C(O)C3NC(C)=O)C2O)C1O (stereo not drawn) observed

Origin of the recorded values: patent US5955325A
